test.method.notes: Spectral and photophysical characterization of free dyes in T.E. buffer
Assay type: physicochemical
test.conditions: T.E. buffer
result.type: molar absorptivity

Reference set, count: 2
>  <smiles.input>
C[n+]1ccc(/C=C/c2cc3ccccc3[nH]2)cc1.[I-]

>  <molar absorptivity>
24400 M⁻¹ cm⁻¹

$$$$
>  <smiles.input>
Cn1c(/C=C/c2cc[n+](C)cc2)cc2ccccc21.[I-]

>  <molar absorptivity>
20600 M⁻¹ cm⁻¹

$$$$

Give one value of molar absorptivity per listed compound.
1. C[n+]1ccc(/C=C/c2ccc3ccccn23)cc1.[I-]
2. C[n+]1ccc(/C=C/c2ccn3ccccc23)cc1.[I-]

1: 27500 M⁻¹ cm⁻¹; 2: 34600 M⁻¹ cm⁻¹

---

Hi there, I'd appreciate the recorded Stokes shift for every entry that follows.
test.method.notes: Spectral and photophysical characterization of free dyes in T.E. buffer
Type: physicochemical
test.conditions: T.E. buffer
Procedure: After the synthesis of the styrene dyes, their photophysical properties were evaluated. The spectral and photophysical properties (absorption, emission, molar absorptivity (ε), fluorescence quantum yield (ΦDF), and fluorescence enhancement) of probes 1a-1d were measured in DMSO and T.E. buffer (Tris-HCl, 1 mM EDTA, pH=7.5). FIG. 2D provides measurements of the fluorescent enhancement for several of the fluorescent probes. […]
Express your answer as a number followed by its unit.

Reference set, count: 2
>  <molecule>
C[n+]1ccc(/C=C/c2ccc3ccccn23)cc1.[I-] [Dye 1c]

>  <Stokes shift>
86 nm

$$$$
>  <molecule>
Cn1c(/C=C/c2cc[n+](C)cc2)cc2ccccc21.[I-] [Dye 1a]

>  <Stokes shift>
162 nm

$$$$

Give one value of Stokes shift per listed molecule.
1. C[n+]1ccc(/C=C/c2cc3ccccc3[nH]2)cc1.[I-] [Dye 1b]
2. C[n+]1ccc(/C=C/c2ccn3ccccc23)cc1.[I-] [Dye 1d]

["142 nm", "86 nm"]

---

test.method.notes: Spectral and photophysical characterization of free dyes in T.E. buffer
Type: physicochemical
test.conditions: free dye in T.E. buffer
Hi there, I'd appreciate the recorded emission wavelength (maximum) for every entry that follows.

Reference set, count: 3
>  <smiles.input>
C[n+]1ccc(/C=C/c2ccn3ccccc23)cc1.[I-]

>  <emission wavelength (maximum)>
572 nm

$$$$
>  <smiles.input>
C[n+]1ccc(/C=C/c2cc3ccccc3[nH]2)cc1.[I-]

>  <emission wavelength (maximum)>
568 nm

$$$$
>  <smiles.input>
Cn1c(/C=C/c2cc[n+](C)cc2)cc2ccccc21.[I-]

>  <emission wavelength (maximum)>
584 nm

$$$$

Give the measured emission wavelength (maximum) for `C[n+]1ccc(/C=C/c2ccc3ccccn23)cc1.[I-]` 596 nm

---

test.method.notes: Spectral and photophysical characterization of free dyes in T.E. buffer
Assay type: physicochemical
test.conditions: free dye in T.E. buffer
Description: After the synthesis of the styrene dyes, their photophysical properties were evaluated. The spectral and photophysical properties (absorption, emission, molar absorptivity (ε), fluorescence quantum yield (ΦDF), and fluorescence enhancement) of probes 1a-1d were measured in DMSO and T.E. buffer (Tris-HCl, 1 mM EDTA, pH=7.5). FIG. 2D provides measurements of the fluorescent enhancement for several of the fluorescent probes. […]
result.type: maximum absorbance wavelength (nm)
One number for each entry, in nm.

Reference set, count: 3
>  <molecule>
Cn1c(/C=C/c2cc[n+](C)cc2)cc2ccccc21.[I-] [Dye 1a]

>  <measured.number>
422

$$$$
>  <molecule>
C[n+]1ccc(/C=C/c2cc3ccccc3[nH]2)cc1.[I-] [Dye 1b]

>  <measured.number>
410

$$$$
>  <molecule>
C[n+]1ccc(/C=C/c2ccc3ccccn23)cc1.[I-] [Dye 1c]

>  <measured.number>
510

$$$$

Read the next record carefully.
Give the measured maximum absorbance wavelength for C[n+]1ccc(/C=C/c2ccn3ccccc23)cc1.[I-] [Dye 1d] 486

---

Hi there, I'd appreciate the recorded fluorescence enhancement upon binding RNA for every entry that follows.
System: torula yeast type IV RNA
test.method.notes: Quantum yield and fluorescence enhancement of dyes incubated with RNA
Assay type: binding
test.conditions: ratio of quantum yield of dye in RNA solution over free dye
Answers are plain numbers, in fold.

Reference set, count: 3
>  <smiles.input>
C[n+]1ccc(/C=C/c2ccc3ccccn23)cc1.[I-]

>  <measured.target>
torula yeast type IV RNA

>  <measured.number>
490

$$$$
>  <smiles.input>
C[n+]1ccc(/C=C/c2ccn3ccccc23)cc1.[I-]

>  <measured.target>
torula yeast type IV RNA

>  <measured.number>
132

$$$$
>  <smiles.input>
Cn1c(/C=C/c2cc[n+](C)cc2)cc2ccccc21.[I-]

>  <measured.target>
torula yeast type IV RNA

>  <measured.number>
104

$$$$

Please report fluorescence enhancement upon binding RNA with torula yeast type IV RNA for item `C[n+]1ccc(/C=C/c2cc3ccccc3[nH]2)cc1.[I-]` . 33
